# Target or system: DNA-PK (Homo sapiens)
# Construct: purchased Invitrogen PR9107A
# Experiment: DNA-PK Assay for Biochemical Enzymatic Inhibition (ADP Glo Kinase assay)
# Condition summary: Table 1
pIC50: −log10 of the molar value.
Readout label: pIC50

# Compound, Target or system, Measured result
rows = [
    ("CCCC(=O)N[C@H]1CC[C@@H](Oc2nc(N3CCOCC3)cc3ncccc23)CC1 [Compound 103]", "DNA-PK (Homo sapiens)", "8.00 to 9.00"),
    ("Cc1nc(N[C@H]2CC[C@@H](Oc3nc(N4CCOCC4)cc4ncccc34)CC2)c2occc2n1 [Compound 81]", "DNA-PK (Homo sapiens)", "> 9.30"),
]

Now look at this one.
Record O=C(N[C@H]1CC[C@@H](Oc2nc(N3CCOCC3)cc3ncccc23)CC1)c1ccncn1 [Compound 118] . Reported pIC50: 9.00 to 9.30

----------
# Target or system: DNA-PK (Homo sapiens, UniProt P78527)
# Construct: purchased Invitrogen PR9107A
# Experiment: DNA-PK Assay for Biochemical Enzymatic Inhibition (ADP Glo Kinase assay)
# Condition summary: Table 1
IC50 values by entry

# Compound, Readout label, Measured result
records = [
    ("Cc1ccnc(C(=O)N[C@H]2CC[C@@H](Oc3nc(N4CCOCC4)cc4ncccc34)CC2)n1", "IC50", "0.5 to 1 nM"),
    ("CCOCCOc1cnc(N[C@H]2CC[C@@H](Oc3nc(N4CCOCC4)cc4ncc(O)cc34)CC2)nc1 [Compound 19b]", "IC50", "1 to 10 nM"),
]

Record `CC(C)S(=O)(=O)Nc1cnc2cc(N3CCOCC3)nc(O[C@H]3CC[C@@H](Nc4ncccn4)CC3)c2c1` . Reported IC50: 1 to 10 nM

----------
IC50 values by entry
# Target or system: DNA-PK (Homo sapiens, UniProt P78527)
# Construct: purchased Invitrogen PR9107A
# Experiment: DNA-PK Assay for Biochemical Enzymatic Inhibition (ADP Glo Kinase assay)
# Condition summary: Table 1

Some solved entries appear below for comparison.
# Compound, Readout label, Measured result
measured = [
    ("CS(=O)(=O)Nc1cnc2cc(N3CCOCC3)nc(O[C@H]3CC[C@@H](NC(=O)c4ncco4)CC3)c2c1 [Compound 205]", "IC50", "0.5 to 1 nM"),
    ("CCS(=O)(=O)Nc1cnc2cc(N3CCOCC3)nc(O[C@H]3CC[C@@H](Nc4ncccn4)CC3)c2c1 [Compound 188]", "IC50", "< 0.5 nM"),
    ("CN1CCN(C(=O)[C@H]2CC[C@@H](Oc3nc(N4CCOCC4)cc4ncccc34)CC2)CC1 [Compound 154d]", "IC50", "10 to 150 nM"),
]

Record O=C(N[C@H]1CC[C@@H](Oc2nc(N3CCOCC3)cc3ncccc23)CC1)c1cc[nH]n1 [Compound 138] . Reported IC50: 0.5 to 1 nM

Record FC(F)c1ccnc2cc(N3CCOCC3)nc(O[C@H]3CC[C@@H](Nc4ncccn4)CC3)c12 [Compound 22] . Reported IC50: < 0.5 nM
